# tested system: KIT V559D/V654A (Homo sapiens, UniProt P10721, V559D/V654A)
# Sequence (P10721 546-976 V559D/V654A): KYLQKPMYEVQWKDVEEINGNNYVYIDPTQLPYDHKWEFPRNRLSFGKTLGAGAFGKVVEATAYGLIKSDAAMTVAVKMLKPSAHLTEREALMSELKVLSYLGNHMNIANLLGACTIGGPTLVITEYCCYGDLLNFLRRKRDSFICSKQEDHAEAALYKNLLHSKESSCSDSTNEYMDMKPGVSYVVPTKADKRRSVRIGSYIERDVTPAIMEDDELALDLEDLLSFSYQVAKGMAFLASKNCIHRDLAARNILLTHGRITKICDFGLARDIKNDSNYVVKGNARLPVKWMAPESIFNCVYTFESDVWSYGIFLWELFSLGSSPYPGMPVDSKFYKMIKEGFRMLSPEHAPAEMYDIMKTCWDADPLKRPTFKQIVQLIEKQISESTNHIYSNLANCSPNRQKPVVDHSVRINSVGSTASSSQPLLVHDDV
# method: KIT auto-phosphorylation in transformed BaF3 cells
# conditions: EC50 pY823 auto-phosphorylation, 2h
pEC50: −log10 of the molar value.
measured endpoint: pEC50

| smiles structure | observed result |
| --- | --- |
| COc1cc(C(=O)NCC(=O)Nc2ccc3c(/C=C/c4ccccn4)n[nH]c3c2)cc(OC)c1OC | 5.27 |

----------
# tested system: KIT wt (Homo sapiens)
# Sequence (P10721 26-976): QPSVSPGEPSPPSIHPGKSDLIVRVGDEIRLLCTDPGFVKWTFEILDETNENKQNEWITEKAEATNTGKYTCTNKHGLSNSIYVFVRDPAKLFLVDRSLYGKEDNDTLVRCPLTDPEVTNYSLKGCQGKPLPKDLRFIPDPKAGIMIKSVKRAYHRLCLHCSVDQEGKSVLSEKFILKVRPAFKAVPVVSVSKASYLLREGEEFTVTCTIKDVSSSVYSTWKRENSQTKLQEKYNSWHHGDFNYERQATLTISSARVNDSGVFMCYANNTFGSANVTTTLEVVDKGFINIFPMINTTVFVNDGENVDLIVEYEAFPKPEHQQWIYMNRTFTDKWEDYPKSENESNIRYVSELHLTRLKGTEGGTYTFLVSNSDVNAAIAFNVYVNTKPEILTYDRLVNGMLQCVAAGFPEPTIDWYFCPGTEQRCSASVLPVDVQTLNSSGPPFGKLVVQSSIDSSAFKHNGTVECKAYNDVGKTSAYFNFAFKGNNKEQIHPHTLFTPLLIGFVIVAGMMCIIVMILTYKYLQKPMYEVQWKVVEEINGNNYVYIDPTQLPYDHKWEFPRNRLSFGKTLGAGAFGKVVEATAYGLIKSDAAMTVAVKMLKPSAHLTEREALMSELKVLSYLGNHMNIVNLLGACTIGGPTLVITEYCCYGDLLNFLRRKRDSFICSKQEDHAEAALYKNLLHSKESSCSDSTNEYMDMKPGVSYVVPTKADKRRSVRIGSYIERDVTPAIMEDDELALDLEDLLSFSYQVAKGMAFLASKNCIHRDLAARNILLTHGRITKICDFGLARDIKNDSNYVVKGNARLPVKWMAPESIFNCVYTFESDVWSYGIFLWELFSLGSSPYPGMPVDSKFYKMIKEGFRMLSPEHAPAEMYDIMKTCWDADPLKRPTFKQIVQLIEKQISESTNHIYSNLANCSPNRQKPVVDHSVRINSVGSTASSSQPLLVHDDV
# method: KIT auto-phosphorylation in parental Colo320DM cells
# Format: cell-based
# Set-up: Colo320DM cells which express wt KIT kinase; endogenous in cells; host or cells: Colo320DM, SCF-stimulated
# conditions: COLO 320DM (KIT wt), SCF stimulation; read-out: EC50 P-CKIT Y823
pEC50: −log10 of the molar value.
measured endpoint: pEC50

| smiles structure | observed result |
| --- | --- |
| COc1cc(C(=O)NCC(=O)Nc2ccc3c(/C=C/c4ccccn4)n[nH]c3c2)cc(OC)c1OC | 5.01 |
